Target: GRK2 (Homo sapiens, UniProt P25098)
Experiment: GRK2 Inhibition Assay (TR-FRET, Example 1)
Type: biochemical
Details: Table 4; Example 1 assay; read-out: Enzymatic GRK2 IC50: Av IC50 GRK2
Procedure: Assay: GRK2 enzyme (1 nM final concentration) was diluted in 25 mM HEPES, 10 mM MgCl2, 2 mM DTT, 0.01% Tween-20, and 1 mM EGTA. Then the GRK2 mixture was added into ProxiPlate-384 white plate and pre-incubated for 30 min with test compounds at room temperature. […] After 60 min incubation time at room temperature, TR-FRET signal was measured by EnVision plate reader.
Where a name gives a salt, the structure may show the parent alone.
property.name: IC50 (nM)

compound: C[C@@H](NC(=O)c1cccc(NCc2nnc(-c3ccncn3)n2C)c1)c1cccc(OCCCN2CCN(c3ccc4c(c3)CN(C3CCC(=O)NC3=O)C4=O)CC2)c1 (stereo partly shown) [Compound D123, hydrochloride]
units: nM
quantitative.readout: 6.56
//
compound: C[C@@H](NC(=O)c1cccc(NCc2nnc(-c3ccncn3)n2C)c1)c1cccc(C(=O)N2CCC(CCCN3CCN(c4ccc5c(c4)CN(C4CCC(=O)NC4=O)C5=O)CC3)CC2)c1 (stereo partly shown) [Compound D119, hydrochloride]
units: nM
quantitative.readout: 16.1
//
compound: C[C@@H](NC(=O)c1cccc(NCc2nnc(-c3ccncn3)n2C)c1)c1ccc(OCCN2CCN(c3ccc4c(c3)CN(C3CCC(=O)NC3=O)C4=O)CC2)cc1 (stereo partly shown) [Compound D174, hydrochloride]
units: nM
quantitative.readout: 12
//
compound: C[C@@H](NC(=O)c1cccc(NCc2nnc(-c3ccncn3)n2C)c1)c1cccc(OCCCCCCOCCOCCN2CCN(c3cc4c(cc3F)C(=O)N(C3CCC(=O)NC3=O)C4=O)CC2)c1 (stereo partly shown)
units: nM
quantitative.readout: 20.9
//
compound: C[C@@H](NC(=O)c1cccc(NCc2nnc(-c3ccncn3)n2C)c1)c1cccc(C(=O)N2CC(N3CCN(c4ccc5c(c4)CN(C4CCC(=O)NC4=O)C5=O)CC3)C2)c1 (stereo partly shown)
units: nM
quantitative.readout: 104
//
compound: Cc1ncsc1-c1ccc(CNC(=O)[C@@H]2C[C@@H](O)CN2C(=O)[C@@H](NC(=O)CCCCCOCCOCCOCCCCCCOc2cccc([C@@H](C)NC(=O)c3cccc(NCc4nnc(-c5ccncn5)n4C)c3)c2)C(C)(C)C)cc1
units: nM
quantitative.readout: 14.1

[A] C[C@@H](NC(=O)c1cccc(NCc2nnc(-c3ccncn3)n2C)c1)c1cccc(OCCCCCOCCCOCC(=O)Nc2cccc3c2CN(C2CCC(=O)NC2=O)C3=O)c1 (stereo partly shown)
[B] C[C@@H](NC(=O)c1cccc(NCc2nnc(-c3ccncn3)n2C)c1)c1cccc(OCCCCCCOCCOCCOCCC(=O)N2CCN(c3ccc4c(c3)CN(C3CCC(=O)NC3=O)C4=O)CC2)c1 (stereo partly shown)
Which value of IC50 is smaller, the one for A or the one for B ? Kindly state the label of the option you pick.
A

---

Molecular target: GRK2 (Homo sapiens, UniProt P25098)
Assay: GRK2 Inhibition Assay (TR-FRET, Example 1)
Assay type: biochemical
Conditions: Table 4; Example 1 assay; read-out: Enzymatic GRK2 IC50: Av IC50 GRK2
pIC50: −log10 of the molar value.
property.name: pIC50

molecule: C[C@@H](NC(=O)c1cccc(NCc2nnc(-c3ccncn3)n2C)c1)c1cccc(OCCCCCCOCCN2CCN(c3ccc4c(c3)CN(C3CCC(=O)NC3=O)C4=O)CC2)c1 (stereo partly drawn)
pIC50: 8.34

[I] C[C@@H](NC(=O)c1cccc(NCc2nnc(-c3ccncn3)n2C)c1)c1cccc(OCCCCCCOCCOCCNc2ccc3c(c2)CN(C2CCC(=O)NC2=O)C3=O)c1 (stereo partly drawn)
[II] C[C@@H](NC(=O)c1cccc(NCc2nnc(-c3ccncn3)n2C)c1)c1cccc(OCCCCCCOCCOCC(=O)Nc2cccc3c2CN(C2CCC(=O)NC2=O)C3=O)c1 (stereo partly drawn)
Thinking about recorded pIC50 values, which is higher, I or II ? Kindly state the label of the option you pick.
II

---

Molecular target: GRK2 (Homo sapiens, UniProt P25098)
Sequence (P25098 1-689): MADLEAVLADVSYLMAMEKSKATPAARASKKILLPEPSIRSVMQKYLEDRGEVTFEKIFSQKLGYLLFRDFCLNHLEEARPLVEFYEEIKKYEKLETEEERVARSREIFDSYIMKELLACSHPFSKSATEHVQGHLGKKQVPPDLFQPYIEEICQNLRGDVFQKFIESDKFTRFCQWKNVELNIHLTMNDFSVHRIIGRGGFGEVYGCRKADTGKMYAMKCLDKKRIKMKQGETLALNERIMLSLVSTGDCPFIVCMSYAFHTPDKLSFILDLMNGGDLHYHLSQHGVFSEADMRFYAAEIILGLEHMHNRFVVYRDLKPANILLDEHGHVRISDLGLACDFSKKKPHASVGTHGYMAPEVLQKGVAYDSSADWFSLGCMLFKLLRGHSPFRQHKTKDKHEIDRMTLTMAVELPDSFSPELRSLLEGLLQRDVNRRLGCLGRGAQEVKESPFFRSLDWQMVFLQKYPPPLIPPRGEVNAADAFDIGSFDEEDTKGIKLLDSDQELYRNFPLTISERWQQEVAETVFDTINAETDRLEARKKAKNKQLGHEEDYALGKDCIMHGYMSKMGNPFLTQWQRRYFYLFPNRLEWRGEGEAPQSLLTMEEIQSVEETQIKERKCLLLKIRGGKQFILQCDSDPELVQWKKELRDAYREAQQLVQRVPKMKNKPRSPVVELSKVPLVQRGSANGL
Experiment: GRK2 Degradation Assay and Western Blot in PAXF1657 cells
Assay type: cell-based
Set-up: endogenous in cells; host or cells: PAXF1657
Conditions: Conc 1 uM; read-out: Degradation Assay - 3 point: Degradation (%)
property.name: inhibition at 1 µM (%)

[P] C[C@@H](NC(=O)c1cccc(NCc2nnc(-c3ccncn3)n2C)c1)c1cccc(OCCCCCCCn2cc(CCCC(=O)Nc3cccc4c3CN(C3CCC(=O)NC3=O)C4=O)nn2)c1 (some centres unmarked)
[Q] Cn1c(CNc2cccc(C(=O)N[C@@H]3CCOc4ccc(OCCCCCOCCCOCC(=O)Nc5cccc6c5CN(C5CCC(=O)NC5=O)C6=O)cc43)c2)nnc1-c1ccncn1 (some centres unmarked)
Which value of inhibition at 1 µM is smaller, the one for P or the one for Q ? Kindly state the label of the option you pick.
Q

---

Target: GRK2 (Homo sapiens, UniProt P25098)
Test: GRK2 Degradation Assay and Western Blot in PAXF1657 cells
Assay type: cell-based
Design: endogenous in cells; host or cells: PAXF1657
Details: Conc 3 uM; read-out: Degradation Assay - 3 point: Degradation (%)
Structures can show the parent of a compound that is named as a salt.
property.name: inhibition at 3 µM (%)

// worked examples, inhibition at 3 µM included
molecule: C[C@@H](NC(=O)c1cccc(NCc2nnc(-c3ccncn3)n2C)c1)c1ccc(OCCCCCCOCCOCCOCCCC(=O)N2CCN(c3cc4c(cc3F)C(=O)N(C3CCC(=O)NC3=O)C4=O)CC2)cc1 (stereo partly shown)
system.under.test: GRK2 (Homo sapiens, UniProt P25098)
inhibition at 3 µM (%): 76.4

molecule: C[C@@H](NC(=O)c1cccc(NCc2nnc(-c3ccncn3)n2C)c1)c1cccc(OCCCCCCOCCOCCOCCCCCC(=O)N2CCN(c3ccc4c(c3)CN(C3CCC(=O)NC3=O)C4=O)CC2)c1 (stereo partly shown)
system.under.test: GRK2 (Homo sapiens, UniProt P25098)
inhibition at 3 µM (%): 86

molecule: C[C@@H](NC(=O)c1cccc(NCc2nnc(-c3ccncn3)n2C)c1)c1cccc(OCCCCCCOCCN2CCN(c3ccc4c(c3)CN(C3CCC(=O)NC3=O)C4=O)CC2)c1 (stereo partly shown)
system.under.test: GRK2 (Homo sapiens, UniProt P25098)
inhibition at 3 µM (%): 88

molecule: C[C@@H](NC(=O)c1cccc(NCc2nnc(-c3ccncn3)n2C)c1)c1cccc(OCCCCCCCn2cc(CCCC(=O)Nc3cccc4c3CN(C3CCC(=O)NC3=O)C4=O)nn2)c1 (stereo partly shown)
system.under.test: GRK2 (Homo sapiens, UniProt P25098)
inhibition at 3 µM (%): 81.9

[A] C[C@@H](NC(=O)c1cccc(NCc2nnc(-c3ccncn3)n2C)c1)c1cccc(OCCCCCCOCCOCCOCCCC(=O)N2CCN(c3ccc4c(c3)CN(C3CCC(=O)NC3=O)C4=O)CC2)c1 (stereo partly shown)
[B] C[C@H](NC(=O)c1cccc(NCc2nnc(-c3ccncn3)n2C)c1)c1ccc(OCCCCN2CCN(c3ccc4c(c3)CN(C3CCC(=O)NC3=O)C4=O)CC2)cc1 (stereo partly shown) [Compound D117, hydrochloride]
Thinking about recorded inhibition at 3 µM values, which is higher, A or B ? Kindly state the label of the option you pick.
A

---

Test system: PAXF1657 KO Clone #4
Assay: 7-day cellular proliferation assay (CellTiter-Glo), PAXF1657 KO Clone #4
Type: cell-based
Settings: proliferation, read-out: GeoMean IC50 (uM) PAXF1657 KO Clone #4
Where a name gives a salt, the structure may show the parent alone.
property.name: IC50

compound: C[C@@H](NC(=O)c1cccc(NCc2nnc(-c3ccncn3)n2C)c1)c1ccc(OCCN2CCN(c3ccc4c(c3)CN(C3CCC(=O)NC3=O)C4=O)CC2)cc1 (stereo partly shown) [Compound D174, hydrochloride]
IC50: > 30 µM

compound: C[C@@H](NC(=O)c1cccc(NCc2nnc(-c3ccncn3)n2C)c1)c1cccc(OCCCCCCOCCOCCOCCC(=O)N2CCN(c3ccc4c(c3)CN(C3CCC(=O)NC3=O)C4=O)CC2)c1 (stereo partly shown)
IC50: > 30 µM

compound: C[C@@H](NC(=O)c1cccc(NCc2nnc(-c3ccncn3)n2C)c1)c1ccc(OCCCCCCOCCOCCOCCC(=O)N2CCN(c3cc4c(cc3F)C(=O)N(C3CCC(=O)NC3=O)C4=O)CC2)cc1 (stereo partly shown)
IC50: 22.8 µM

Please find the next compound below.
Item under review: C[C@@H](NC(=O)c1cccc(NCc2nnc(-c3ccncn3)n2C)c1)c1cccc(OCCCCN2CCN(c3ccc4c(c3)CN(C3CCC(=O)NC3=O)C4=O)CC2)c1 (stereo partly shown) . Reported IC50?
> 30 µM
